Target: T1, human FLT3 protein (human, UniProt P36888 27-541, limits assumed)
T1 construct: protein coated in the screening ELISA; also called ELISA FLT3
Assay: colorimetric ELISA, periplasmic extract

# Binder, ELISA FLT3 (absorbance)
data = [
    ("FLL86 (VHH, llama anti-FLT3 variable domain; E. coli periplasmic extract) VHH: QVQLQESGGGLVQPGDPLRLSCAASGSTFSRNYIDWYRQAPGKQREWVAQITSGGNTHYEPSLKGRFTISRDNAKNTAYLQMNSLKPEDTAVYYCRILDYWGQGTQVTVSS", "1.9 absorbance"),
    ("FLL14 (VHH, llama anti-FLT3 variable domain; E. coli periplasmic extract) VHH: QVQLQESGGGLVQAGGSLRLSCAASGVTFSINYIDWYRQAPGKQREWVAQITRDSNSFYADSVKGRFAISRDNAKNTVYLQMNSLKPEDTAVYYCRLLSYWGQGTQVTVSS", "1.8 absorbance"),
    ("FLL94 (VHH, llama anti-FLT3 variable domain; E. coli periplasmic extract) VHH: QVQLQESGGGLVQAGGSLRLSCAVSGRTFSGFGTGWFRQAPEKEREFVAAISWDGGRTHYADSVKGRFTISRDNAKNTVYLQMNSLKPEDTAIYYCAGQVARAYDTRWYSRGDYWGQGTQVTVSS", "4 absorbance"),
    ("FLL78 (VHH, llama anti-FLT3 variable domain; E. coli periplasmic extract) VHH: QVQLQESGGGWVQAGGSLRLSCAASGRTFSSYAMGWFRQAPGKEREFVAAISWSGSSTYYADSVKGRFTISRDNAKNTVYLLMDSLKPEDTAVYYCAAGGSTRVVVTTTPVVKYWGQGTQVTVSS", "4 absorbance"),
]
